# test target: wild-type EGFR (A431 cells) (Homo sapiens, UniProt P00533)
# Construct: A431 bears amplification of the wild-type EGFR gene; endogenous in cells; host or cells: A431
# Sequence (P00533 25-1210): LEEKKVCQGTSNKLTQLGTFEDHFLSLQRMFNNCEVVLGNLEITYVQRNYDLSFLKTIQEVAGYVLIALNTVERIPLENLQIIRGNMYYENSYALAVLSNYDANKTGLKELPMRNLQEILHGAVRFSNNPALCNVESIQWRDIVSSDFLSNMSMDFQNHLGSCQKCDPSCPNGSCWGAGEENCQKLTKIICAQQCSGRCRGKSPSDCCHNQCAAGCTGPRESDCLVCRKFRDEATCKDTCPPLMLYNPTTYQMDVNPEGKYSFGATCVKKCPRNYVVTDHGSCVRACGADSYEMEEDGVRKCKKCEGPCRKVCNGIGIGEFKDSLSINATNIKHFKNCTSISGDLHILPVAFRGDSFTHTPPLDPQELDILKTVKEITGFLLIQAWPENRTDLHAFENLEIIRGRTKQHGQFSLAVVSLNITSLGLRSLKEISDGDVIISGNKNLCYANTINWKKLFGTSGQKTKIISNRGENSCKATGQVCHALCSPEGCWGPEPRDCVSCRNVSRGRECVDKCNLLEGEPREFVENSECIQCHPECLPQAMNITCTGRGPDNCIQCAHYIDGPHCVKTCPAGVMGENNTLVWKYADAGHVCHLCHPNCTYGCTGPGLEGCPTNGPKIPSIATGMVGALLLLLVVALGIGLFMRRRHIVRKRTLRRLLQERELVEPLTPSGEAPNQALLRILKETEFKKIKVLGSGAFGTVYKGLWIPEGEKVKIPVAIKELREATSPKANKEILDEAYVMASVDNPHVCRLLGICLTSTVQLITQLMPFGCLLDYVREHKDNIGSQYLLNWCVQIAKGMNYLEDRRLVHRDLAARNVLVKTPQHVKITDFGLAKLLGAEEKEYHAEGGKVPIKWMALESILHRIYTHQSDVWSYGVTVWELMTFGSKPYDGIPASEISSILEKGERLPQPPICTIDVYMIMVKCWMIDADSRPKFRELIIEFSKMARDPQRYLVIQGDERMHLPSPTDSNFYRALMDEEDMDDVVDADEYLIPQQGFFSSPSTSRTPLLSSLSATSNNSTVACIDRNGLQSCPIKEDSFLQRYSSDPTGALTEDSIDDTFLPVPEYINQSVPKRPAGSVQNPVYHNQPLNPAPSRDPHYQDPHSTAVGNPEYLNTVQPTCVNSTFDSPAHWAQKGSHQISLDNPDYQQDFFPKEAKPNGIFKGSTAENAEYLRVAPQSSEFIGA
# protocol description: Cellular phosphorylation assay, pEGFR (phospho-EGFR Tyr1068 AlphaLISA) in A431
# Assay type: cell-based
# assay setup: compound incubated for 5 hours, EGF (30 ng/mL) for 15 minutes
pIC50: −log10 of the molar value.
recorded endpoint: pIC50

molecule="Cc1cc(Nc2ncnc3ccc(C4=CCN(C(=O)/C=C/C5CCCN5C)CC4)nc23)ccc1Oc1ccn2ncnc2c1 (centres unmarked)" assay_value="≤ 6.00"
molecule=C=CC(=O)N1CC=C(c2ncc3ncnc(Nc4cc(C)c(Oc5ccn6ncnc6c5)cc4F)c3n2)CC1 assay_value="≤ 6.00"
molecule=CC#CC(=O)N1CC=C(c2ccc3ncnc(Nc4ccc(Oc5ccn6ncnc6c5)c(C)c4)c3n2)CC1 assay_value="6.00 to 6.30"
molecule=Cc1cc(Nc2ncnc3ccc(C4=CCN(C(=O)/C=C/CN(C)C)CC4)nc23)ccc1Oc1ccn2ncnc2c1 assay_value="6.30 to 7.00"
molecule=C=CC(=O)N1CCC(c2ncc3ncnc(Nc4ccc(Oc5ccn6ncnc6c5)c(C)c4F)c3n2)=C[C@@H]1C assay_value="6.00 to 6.30"
molecule=C=C(F)C(=O)N1CCN(c2ccc3ncnc(Nc4ccc(Oc5ccn6ncnc6c5)c(C)c4)c3n2)CC1 assay_value="≤ 6.00"
molecule=C=CC(=O)N1CC=C(c2ncc3ncnc(Nc4ccc(Oc5ccn6ncnc6c5)c(C)c4F)c3n2)C[C@@H]1C assay_value="≤ 6.00"
molecule=C=CC(=O)N1C[C@@H](C)N(c2ncc3ncnc(Nc4ccc(Oc5ccn6ncnc6c5)c(C)c4F)c3n2)C[C@H]1C assay_value="≤ 6.00"
molecule="C=CC(=O)N1CCC2(CCN(c3ncc4ncnc(Nc5ccc(Oc6ccn7ncnc7c6)c(C)c5F)c4n3)C2)C1 (centres unmarked)" assay_value="≤ 6.00"
molecule=C=CC(=O)N1CCN(c2ccc3ncnc(Nc4ccc(Oc5ccn6c(C)cnc6c5)c(C)c4F)c3c2F)C[C@H]1C assay_value="6.00 to 6.30"
molecule=C=CC(=O)N1CCC(c2ncc3ncnc(Nc4ccc(Oc5ccn6ncnc6c5)c(C(F)(F)F)c4F)c3n2)=C[C@@H]1C assay_value="≤ 6.00"
molecule=C=CC(=O)N1CCN(c2ncc3ncnc(Nc4ccc(Oc5ccn6ncnc6c5)c(C)c4F)c3n2)[C@H](C)[C@H]1C assay_value="≤ 6.00"
molecule=C=CC(=O)N1CC=C(c2ccc3ncnc(Nc4ccc(Oc5ccn6ncnc6c5)c(C)c4)c3n2)C[C@@H]1C assay_value="≤ 6.00"
molecule=C=CC(=O)N1CCCN(c2ccc3ncnc(Nc4ccc(Oc5ccn6ncnc6c5)c(C)c4)c3n2)CC1 assay_value="≤ 6.00"
molecule=C=CC(=O)N1CC=C(c2ncc3ncnc(Nc4ccc(Oc5ccn6ncnc6c5)c(C)c4)c3n2)CC1 assay_value="6.00 to 6.30"
molecule=C=CC(=O)N1CC=C(c2ccc3ncnc(Nc4ccc(Oc5ccn6ccnc6c5)c(C)c4)c3n2)CC1 assay_value="6.30 to 7.00"
molecule=C=CC(=O)N1CC=C(c2ccc3ncnc(Nc4ccc(Oc5ccn6ncnc6c5)c(C)c4)c3n2)C1 assay_value="≤ 6.00"

The measured values listed here are drawn from patent US12037346B2.
